Assay: Metabolic stability in human liver microsomes assessed as intrinsic clearance at 1 uM measured upto 45 mins in presence of NADPH by LC/MS/MS analysis
Format: ADME, Microsome
Conditions: read-out: CLH
This section presents molecules with their documented CLint scaled at 1 µM values.
All answers are understood in mL/min/kg, so give the number only.

// known answers, use as guide
INSERT INTO results (smiles_structure, unit_of_measurement, assay_result) VALUES
  ('Nc1nonc1-c1nc2ccccc2n1CC(=O)Nc1ccc(Br)c2ccccc12', 'mL/min/kg', 54),
  ('Nc1nonc1-c1nc2ccccc2n1CC(=O)Nc1cccc([N+](=O)[O-])c1', 'mL/min/kg', 36.6);

Next item in the queue.
Sure, the documented CLint scaled at 1 µM for Nc1nonc1-c1nc2ccccc2n1CC(=O)Nc1cnc2ccccc2c1 is 10.9

* * *

System: SH-SY5Y
Assay: Cytotoxicity against human SH-SY5Y cells assessed as reduction in cell viability incubated for 24 hrs by MTT assay
Format: functional, cell-based
property-measured: pIC50
// pIC50: -log10(molar conc.)

Item: Cc1ccc2cc(NC(=O)Cn3c(-c4nonc4N)nc4ccccc43)ccc2n1 | System: SH-SY5Y | pIC50: 4.45

* * *

Assay: AUC (0 to t) in ICR mouse plasma at 10 mg/kg, po measured upto 240 mins
Type: ADME, organism-based
Design: route oral, dose 10 mg/kg, time <=240
property-measured: AUC(0-t) at 4 h (µg·h/mL)
All answers are understood in µg·h/mL, so give the number only.

Sure, the documented AUC(0-t) at 4 h for Nc1nonc1-c1nc2ccccc2n1CC(=O)Nc1cnc2ccccc2c1 is 0.0947

* * *

Target: Cholinesterase (Equus caballus)
Sequence (P81908 whole entry): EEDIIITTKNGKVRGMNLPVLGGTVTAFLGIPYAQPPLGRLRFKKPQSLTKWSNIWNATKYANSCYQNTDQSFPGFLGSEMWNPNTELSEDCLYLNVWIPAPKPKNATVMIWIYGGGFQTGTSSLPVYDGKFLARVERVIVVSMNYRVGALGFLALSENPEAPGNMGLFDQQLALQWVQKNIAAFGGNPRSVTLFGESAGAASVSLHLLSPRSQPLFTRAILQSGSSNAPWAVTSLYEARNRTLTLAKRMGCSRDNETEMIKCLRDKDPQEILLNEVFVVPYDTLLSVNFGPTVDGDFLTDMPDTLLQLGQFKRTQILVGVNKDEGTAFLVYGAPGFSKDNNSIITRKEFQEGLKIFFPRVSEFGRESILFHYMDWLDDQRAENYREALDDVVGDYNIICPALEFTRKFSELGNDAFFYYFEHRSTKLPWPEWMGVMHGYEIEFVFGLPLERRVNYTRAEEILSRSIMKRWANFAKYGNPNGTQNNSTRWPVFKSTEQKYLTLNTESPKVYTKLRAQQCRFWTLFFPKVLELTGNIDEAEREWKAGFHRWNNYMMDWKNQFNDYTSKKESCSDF
Experiment: Inhibition of equine serum BChE using butyrylthiocholine iodide as substrate preincubated for 5 mins followed by substrate addition and measured after 2 mins by DTNB-reagent based Ellman's method
This section presents molecules with their documented pIC50 values.
// pIC50: -log10(molar conc.)

Sure, the documented pIC50 for N#Cc1cccc(NC(=O)Cn2c(-c3nonc3N)nc3ccccc32)c1 is 7.29

* * *

Experiment: Ratio of AUC in brain to plasma of ICR mouse at 10 mg/kg, po measured upto 240 mins
Assay type: ADME, organism-based
Details: read-out: Ratio AUC
property-measured: Kp at 4 h
Hey, just send me the number, nothing else.

Sure, the documented Kp at 4 h for Nc1nonc1-c1nc2ccccc2n1CC(=O)Nc1cnc2ccccc2c1 is 0.36

* * *

Assay: Effective permeability of the compound in pH 7.4 PBS/EtOH (70:30) at 100 ug/ml incubated for 18 hrs by PAMPA-BBB assay
Type: ADME
Settings: dose 100 µg/ml, read-out: Peff
property-measured: Papp at 18 h, 100 ug/ml (×10⁻⁶ cm/s)
All answers are understood in ×10⁻⁶ cm/s, so give the number only.

// known answers, use as guide
INSERT INTO measurements (smiles_structure, property_measured, assay_result) VALUES
  ('Nc1nonc1-c1nc2ccccc2n1CC(=O)Nc1ccc(Br)c2ccccc12', 'Papp at 18 h, 100 ug/ml', 11.7),
  ('Nc1nonc1-c1nc2ccccc2n1CC(=O)Nc1cccc([N+](=O)[O-])c1', 'Papp at 18 h, 100 ug/ml', 12.4);

Sure, the documented Papp at 18 h, 100 ug/ml for Nc1nonc1-c1nc2ccccc2n1CC(=O)Nc1cnc2ccccc2c1 is 4.45

Where do these numbers come from? They come from ChEMBL document CHEMBL5038583.
